Test system: panel of cancer cell lines including breast cancer cell lines, ovary cancer cell lines, and a prostate cancer cell line
Test: 4-day image-based nuclear count assay (NCA), cancer cell line panel
Set-up: species or system human
Conditions: Homo sapiens, 96 h; mean across the seven sensitive (TP53 mutant) of twelve cell lines; SD ±0.008
quantity_kind: pEC50
Just so you know, pEC50 here is -log10 of the concentration in molar units; reply with that number alone.

q: Could you share which pEC50 value was measured for Cc1cc(NC(=O)c2ccc(NS(=O)(=O)CCO)cc2N2CCC3(CC2)CC3)nc(N2CCC(F)(F)CC2)n1 ?
a: 7.25

---

System: MDA-MB-157 TNBC cells
Experiment: Imaging-based Centrosome Count Assay (CCA)
Type: cell-based
Conditions: Homo sapiens, 24 hours of treatment, read-out: EC50, pericentrin spotting (>2 spots per mitotic object)
Procedure: To analyze the effects of a KIF18A inhibitor on the mitotic phenotype of cancer cells, an imaging-based Centrosome Count Assay (CCA) carried out using a KIF18A inhibitor was carried out. […] Imaging data was acquired on Cellomics ArrayScan VTI HCS Reader (SN03090745F, ThermoFisher Scientific) using the SpotDetector.V4 Assay protocol (Ver 6.6.0 (Build 8153) with a 20×objective, experiment #1 collected 100-fields per well; experiment #2 collected 67-fields per well). […]
quantity_kind: EC50 (nM)
Write the value in nM as a bare number.

q: # returns recorded EC50 (system: MDA-MB-157 TNBC cells) for Cc1cc(NC(=O)c2ccc(NS(=O)(=O)CCO)cc2N2CCC3(CC2)CC3)nc(N2CCC(F)(F)CC2)n1 [Compound C14]
a: 52.2

---

Target: mouse KIF18A (residues 1-467) (Mus musculus)
Construct: mouse KIF18A (residues 1-467, 4 nM); made in house
Sequence (Q91WD7 1-467): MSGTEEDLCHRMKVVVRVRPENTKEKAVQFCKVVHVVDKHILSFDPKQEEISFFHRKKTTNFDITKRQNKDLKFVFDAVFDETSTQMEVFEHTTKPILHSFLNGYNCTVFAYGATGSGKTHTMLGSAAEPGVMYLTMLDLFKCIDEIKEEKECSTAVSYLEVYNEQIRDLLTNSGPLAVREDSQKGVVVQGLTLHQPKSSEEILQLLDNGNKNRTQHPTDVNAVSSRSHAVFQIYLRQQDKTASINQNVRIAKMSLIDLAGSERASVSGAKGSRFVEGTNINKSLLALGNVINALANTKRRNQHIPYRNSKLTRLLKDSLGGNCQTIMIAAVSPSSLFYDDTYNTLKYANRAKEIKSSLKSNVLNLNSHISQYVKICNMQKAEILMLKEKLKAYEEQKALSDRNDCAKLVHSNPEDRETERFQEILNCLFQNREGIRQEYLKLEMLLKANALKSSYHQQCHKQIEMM
Sequence (P02550 whole entry partner, the tested form may be a part): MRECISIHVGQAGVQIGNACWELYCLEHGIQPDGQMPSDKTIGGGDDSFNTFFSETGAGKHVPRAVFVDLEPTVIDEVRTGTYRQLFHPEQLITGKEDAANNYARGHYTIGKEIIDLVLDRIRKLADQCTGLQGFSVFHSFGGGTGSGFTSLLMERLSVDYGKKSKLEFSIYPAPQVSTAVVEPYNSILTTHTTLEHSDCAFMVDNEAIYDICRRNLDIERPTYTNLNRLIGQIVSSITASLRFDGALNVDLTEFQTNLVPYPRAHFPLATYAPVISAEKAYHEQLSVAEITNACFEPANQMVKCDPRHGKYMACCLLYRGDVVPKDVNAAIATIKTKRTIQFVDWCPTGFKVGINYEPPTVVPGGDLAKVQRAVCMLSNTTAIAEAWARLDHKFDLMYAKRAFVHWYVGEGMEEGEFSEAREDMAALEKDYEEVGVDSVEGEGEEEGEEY
Sequence (P02554 whole entry partner, the tested form may be a part): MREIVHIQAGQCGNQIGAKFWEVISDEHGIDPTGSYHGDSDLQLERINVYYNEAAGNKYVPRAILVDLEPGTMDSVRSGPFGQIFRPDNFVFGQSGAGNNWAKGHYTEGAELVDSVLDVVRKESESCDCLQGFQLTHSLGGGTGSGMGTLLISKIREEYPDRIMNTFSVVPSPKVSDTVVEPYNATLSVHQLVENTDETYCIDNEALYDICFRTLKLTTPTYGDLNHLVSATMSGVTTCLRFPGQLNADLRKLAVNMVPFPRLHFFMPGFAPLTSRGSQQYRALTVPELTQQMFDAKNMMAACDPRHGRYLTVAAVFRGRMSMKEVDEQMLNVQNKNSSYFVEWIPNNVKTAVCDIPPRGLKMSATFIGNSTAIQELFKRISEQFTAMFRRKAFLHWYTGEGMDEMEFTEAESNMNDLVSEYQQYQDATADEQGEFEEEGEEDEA
Assay: KIF18A MT-ATPase motor activity, ADP-Glo luminescence assay (Example 19)
Format: biochemical
Conditions: mouse KIF18A 4 nM, 30 μM ATP; read-out: IC50, KIF18A motor activity (MT-ATPase)
quantity_kind: IC50

q: Could you share which IC50 value was measured for CC(C)(C)NS(=O)(=O)c1cccc(NC(=O)c2ccc(S(=O)(=O)NC(C)(C)C)cc2N2CCC3(CC2)CC3)c1 [Compound C9] ?
a: 0.232 µM

These measurements were taken from patent US20230151432A1.
